- Test system: HSV-2 strain MS
- test.summary: CPE inhibition assay, HSV-2 MS in human foreskin fibroblast cells
- Assay type: cell-based, herpes simplex virus type 2
- applied.conditions: CPE inhibition in HFF cells
measure: EC50 HSV-2 MS (µg/mL)
Numbers only, in µg/mL.

As a guide, the following entries are already answered.
compound="CC1(C)CCC23CC[C@@]4(C)C(CCC5[C@@]6(C)CCC(OP(=O)(O)O)C(C)(C)C6CC[C@]54C)C2C1OC3 (some centres unmarked) [Allobetulin 3-phosphate, Allobetulin Phosphate]" measure="EC50 HSV-2 MS" numeric_readout=0.25
compound="CC(=O)OC1CCC2(C)C(CCC3(C)C2CCC2C4C5OC(=O)C4(CCC5(C)C)CCC23C)C1(C)C (centres unmarked)" measure="EC50 HSV-2 MS" numeric_readout=0.125

Note: attention shifts to another entry.
[in] Give EC50 HSV-2 MS for the following compound: CC1(C)CCC23CCC4(C)C(CCC5C6(C)CCC(OC(=O)c7ccccc7C(=O)O)C(C)(C)C6CCC54C)C2C1OC3 (centres unmarked) [Allobetulin 3-phthalate, Allobetulin, 3-Phthalate]
[out] 0.25

----------
- test.summary: Cytotoxic effect in Vero cell line
- Type: cell-based, African green monkey
- applied.conditions: African green monkey, Vero cells; Vero cell line
measure: CC50 at 72 h (µg/mL)
Give bare numbers, in µg/mL.

[in] Give a short answer stating reported CC50 at 72 h for CC1(C)CCC23CC[C@]4(C)C(CCC5[C@@]6(C)CCC(O)C(C)(C)C6CC[C@]54C)C2C1OC3 (stereo partly drawn) [Allobetulin, 3β-hydroxy-19αH-19,28-epoxy-oleanane] .
[out] 0.3

----------
Exercise: state measured CC50 for each of the molecules provided.
- System: Primary human foreskin fibroblast cells (HFF)
- test.summary: Cell proliferation assay (cytotoxicity) in HFF cells
- Type: cell-based
- applied.conditions: Human foreskin fibroblast cells; reduces growth of uninfected cells by 50%

Below: 3 molecules and their reported CC50.
molecule="CC1(C)CCC23CCC4(C)C(CCC5C6(C)CCC(OC(=O)CCC(=O)O)C(C)(C)C6CCC54C)C2C1OC3 (stereo not shown) [Allobetulin Succinate, Allobetulin, 3-Succinate]" result=">0.25 µg/mL"
molecule="CC1(C)CCC23CCC4(C)C(CCC5C6(C)CCC(OC(=O)c7ccccc7C(=O)O)C(C)(C)C6CCC54C)C2C1OC3 (stereo not shown) [Allobetulin 3-phthalate, Allobetulin, 3-Phthalate]" result=">0.25 µg/mL"
molecule="C[C@@H]1O[C@@H](O[C@H]2[C@H](O[C@H]3CC[C@@]4(C)[C@@H](CC[C@]5(C)[C@@H]4CC=C4[C@@H]6CC(C)(C)CC[C@]6(C(=O)O)CC[C@]45C)[C@]3(C)CO)OC[C@H](O)[C@@H]2O)[C@H](O)[C@H](O)[C@H]1O [Hederine hydrate, α-hederin hydrate]" result=">0.25 µg/mL"

Hey, can you go through the list below and give me CC50 for every item?
1. CC(=O)OC1CCC2(C)C(CCC3(C)C2CCC2C4C5OC(=O)C4(CCC5(C)C)CCC23C)C1(C)C (stereo not shown)
2. C=C(C)[C@@H]1CC[C@]2(CO)CC[C@]3(C)[C@H](CC[C@@H]4[C@@]5(C)CC[C@H](O)C(C)(C)[C@@H]5CC[C@]43C)[C@@H]12 [Betulin, lup-20(29)-ene-3β, 28-diol, reference compound]
3. CC1(C)CCC23CCC4(C)C(CCC5C6(C)CCC(OC(=O)CO)C(C)(C)C6CCC54C)C2C1OC3 (stereo not shown) [Allobetulin 3-glycolate, Allobetulin, 3-Glycolate]

[out]
["0.225 µg/mL", "0.25 µg/mL", ">0.25 µg/mL"]

[in] Output measured CC50 for this item: CC1(C)CCC23CC[C@@]4(C)C(CCC5[C@@]6(C)CCC(OP(=O)(O)O)C(C)(C)C6CC[C@]54C)C2C1OC3 (stereo partly shown) [Allobetulin 3-phosphate, Allobetulin Phosphate]
[out] >0.125 µg/mL

----------
- Tested on: HSV-2 strain MS
- test.summary: CPE inhibition assay, HSV-2 MS in human foreskin fibroblast cells
- Assay type: cell-based, herpes simplex virus type 2
- applied.conditions: CPE inhibition in HFF cells
measure: EC50 HSV-2 MS (µg/mL)
Numbers only, in µg/mL.

molecule="CC1(C)CCC23CC[C@]4(C)C(CCC5[C@@]6(C)CCC(O)C(C)(C)C6CC[C@]54C)C2C1OC3 (stereo partly drawn) [Allobetulin, 3β-hydroxy-19αH-19,28-epoxy-oleanane]" numeric_readout=0.225

Consider the additional molecule presented here.
[in] Recall the reported EC50 HSV-2 MS of CC1(C)CCC23CCC4(C)C(CCC5C6(C)CCC(OC(=O)CO)C(C)(C)C6CCC54C)C2C1OC3 (stereo not shown) [Allobetulin 3-glycolate, Allobetulin, 3-Glycolate] when tested on HSV-2 strain MS.
[out] 0.125

----------
- test.summary: CC50 in Daudi cells (Table 3)
- Type: cell-based
- applied.conditions: human; Daudi cells, Epstein-Barr Virus section of Table 3; read-out: CC50
measure: CC50

[in] Query CC50 for C[C@H]1[C@H](C)CC[C@]2(C(=O)O)CC[C@]3(C)C(=CC[C@@H]4[C@@]5(C)CC[C@H](O)C(C)(C)[C@@H]5CC[C@]43C)[C@H]12
[out] > 0.05 µg/mL

----------
- test.summary: CC50 in HFF cells (Table 3)
- Assay type: cell-based, human
- applied.conditions: human, CC50
measure: CC50 at 72 h

[in] # return recorded CC50 at 72 h for entry C=C(C)[C@@H]1CC[C@]2(COP(=O)(O)O)CC[C@]3(C)[C@H](CC[C@@H]4[C@@]5(C)CC[C@H](OP(=O)(O)O)C(C)(C)[C@@H]5CC[C@]43C)[C@@H]12 [Betulin diphosphate]
[out] > 0.1 µg/mL

----------
- test.summary: CC50 in HFF cells (Table 3)
- Assay type: cell-based, human
- applied.conditions: human, HFF cells, Varicella-Zoster Virus section of Table 3; read-out: CC50
- Procedure: The cells were observed daily for any change in morphology. The rounding and lysis of cells were observed if the compound has cytotoxic effect. At the end of this time, the media-drug solution was removed and the cells washed. […] The cells-media mixture was then pipetted up and down several times to resuspend the cells and 0.2 ml of the cell suspension was added to 9.8 ml of trypan blue and cells were counted using hemocytometer. […]
measure: CC50 at 72 h (ng/mL)
Numbers only, in ng/mL.

[in] Look up and report measured CC50 at 72 h for this entry: C[C@H]1[C@H](C)CC[C@]2(C(=O)O)CC[C@]3(C)C(=CC[C@@H]4[C@@]5(C)CC[C@H](O)C(C)(C)[C@@H]5CC[C@]43C)[C@H]12 [Ursolic acid]
[out] 2.9

----------
- test.summary: CC50 in Daudi cells (Table 3)
- Format: cell-based
- applied.conditions: human
measure: CC50

[in] Given the compound C=C(C)[C@@H]1CC[C@]2(COP(=O)(O)O)CC[C@]3(C)[C@H](CC[C@@H]4[C@@]5(C)CC[C@H](OP(=O)(O)O)C(C)(C)[C@@H]5CC[C@]43C)[C@@H]12 [Betulin diphosphate] , write its reported CC50.
[out] > 0.05 µg/mL

----------
- test.summary: CC50 in MEF cells (Table 3)
- Type: cell-based
- applied.conditions: Mouse Cytomegalovirus section of Table 3
measure: CC50

[in] For the compound Nc1nc(O)c2ncn(COC(CO)CO)c2n1 [Ganciclovir ®, Ganciclovir, reference compound] , report CC50.
[out] > 100 µg/mL

----------
- Test system: Primary human foreskin fibroblast cells (HFF)
- test.summary: Cell proliferation assay (cytotoxicity) in HFF cells
- Format: cell-based
- applied.conditions: HFF cells; solution conc. per compound (ng/ml) (Acyclovir 250); 2.0 ml dose
- Protocol: Human laryngeal epithelial carcinoma cells (HEp-2, ATCC, Rockville, Md.) were used for testing of antiviral compounds by cytopathic effect (CPE) inhibition and plaque reduction assay. […] HFF, Vero and HEp-2 cells were seeded in 24-well tissue culture plates at a concentration of […] in DMEM containing 10% FCS and incubated for 24 hours at 37° C. in the presence of 5% CO2. […] Each sample was counted three times with three replicate wells per sample.
measure: Qualitative Cytotoxic Effect at 2.0 ml dose

Examples with their reported Qualitative Cytotoxic Effect at 2.0 ml dose follow.
compound="CC(=O)OC1CCC2(C)C(CCC3(C)C2CCC2C4C5OC(=O)C4(CCC5(C)C)CCC23C)C1(C)C (centres unmarked)" result=+
compound="CC1(C)CCC23CC[C@]4(C)C(CCC5[C@@]6(C)C=C(O)C(=O)C(C)(C)C6CC[C@]54C)C2C1OC3 (some centres unmarked)" result=−
compound="CC1(C)CCC23CC[C@]4(C)C(CCC5[C@@]6(C)CCC(=O)C(C)(C)C6CC[C@]54C)C2C1OC3 (some centres unmarked)" result=−
compound="CC1(C)CCC23CC[C@]4(C)C(CCC5[C@@]6(C)CCC(O)C(C)(C)C6CC[C@]54C)C2C1OC3 (stereo partly drawn) [Allobetulin, 3β-hydroxy-19αH-19,28-epoxy-oleanane]" result=−

Turning now to a further compound:
[in] Please look at C=C(C)[C@@H]1CC[C@]2(CO)CC[C@]3(C)[C@H](CC[C@@H]4[C@@]5(C)CC[C@H](O)C(C)(C)[C@@H]5CC[C@]43C)[C@@H]12 [Betulin, lup-20(29)-ene-3β, 28-diol, reference compound] and tell me its recorded Qualitative Cytotoxic Effect at 2.0 ml dose on Primary human foreskin fibroblast cells (HFF).
[out] −

This collection of values is drawn from patent US6369101B1.
